# Test system: NHDF-Neo (normal human dermal fibroblast-neonatal cells)
# experiment_description: MTT cytotoxicity assay, NHDF-Neo healthy cells
# Type: cell-based
# condition_parameters: MTT assay, incubation time 24 h, read-out: IC50 NHDF-Neo
pIC50: −log10 of the molar value.
Catalogue of molecules with associated pIC50

# molecule, pIC50
data = [
    ("CC(=O)OC[C@H]1O[C@@H](OCCn2cc(CNc3cccc4cccnc34)nn2)[C@H](OC(C)=O)[C@@H](OC(C)=O)[C@H]1OC(C)=O [Compound 16]", "< 3.10"),
    ("CC(=O)OC[C@H]1O[C@@H](OCCN=[N+]=[N-])[C@H](OC(C)=O)[C@@H](OC(C)=O)[C@@H]1OC(C)=O [Compound 9]", "< 3.10"),
    ("CC(=O)OC[C@H]1O[C@@H](n2cc(CNc3cccc4cccnc34)nn2)[C@H](OC(C)=O)[C@@H](OC(C)=O)[C@@H]1OC(C)=O [Compound 13]", "< 3.10"),
    ("OCCn1cc(CNc2cccc3cccnc23)nn1 [Compound 19]", "< 3.10"),
    ("CC(=O)OC[C@H]1O[C@@H](OCc2cn(CCCNc3cccc4cccnc34)nn2)[C@H](OC(C)=O)[C@@H](OC(C)=O)[C@H]1OC(C)=O [Compound 18]", 3.23),
]

# pIC50 of CC(=O)OC[C@H]1O[C@@H](n2cc(CNc3cccc4cccnc34)nn2)[C@H](OC(C)=O)[C@@H](OC(C)=O)[C@H]1OC(C)=O [Compound 14] = < 3.10

Reported pIC50 of C#CCNc1cccc2cccnc12 [Compound 3, N-(prop-2-yn-1-yl)quinolin-8-amine] : < 3.10

// pIC50 lookup, molecule = CC(=O)OC[C@H]1O[C@@H](N=[N+]=[N-])[C@H](OC(C)=O)[C@@H](OC(C)=O)[C@@H]1OC(C)=O [Compound 7] , result: < 3.10

// [N-]=[N+]=NCCCNc1cccc2cccnc12 [Compound 5, N-(3-azidopropyl)quinolin-8-amine] : pIC50 value = 3.38

// field: pIC50; key: C#CCO[C@@H]1O[C@H](COC(C)=O)[C@H](OC(C)=O)[C@H](OC(C)=O)[C@H]1OC(C)=O [Compound 12] ; value = < 3.10

Lab book: pIC50 of OCc1cn(CCCNc2cccc3cccnc23)nn1 [Compound 20] noted as < 3.10

Form field pIC50, entry CC(=O)OC[C@H]1O[C@@H](OCc2cn(CCCNc3cccc4cccnc34)nn2)[C@H](OC(C)=O)[C@@H](OC(C)=O)[C@@H]1OC(C)=O [Compound 17] : 3.38

The recorded pIC50 for entry CC(=O)OC[C@H]1O[C@@H](OCCn2cc(CNc3cccc4cccnc34)nn2)[C@H](OC(C)=O)[C@@H](OC(C)=O)[C@@H]1OC(C)=O [Compound 15] equals < 3.10

Looking up C#CCO[C@@H]1O[C@H](COC(C)=O)[C@@H](OC(C)=O)[C@H](OC(C)=O)[C@H]1OC(C)=O [Compound 11] , I found its pIC50 recorded as < 3.10

----------
# System: HCT 116 (human colorectal cancer cell line)
# experiment_description: MTT cytotoxicity assay, HCT 116 cells
# Type: cell-based
# condition_parameters: Homo sapiens, HCT-116, 24 h, read-out: IC50 HCT 116
reported_metric: IC50

# compound, target_system, IC50
measured = [
    ("Nc1cccc2cccnc12 [Compound 1, 8-Aminoquinoline, reference compound]", "HCT 116 (human colorectal cancer cell line)", "> 800 µM"),
]

# context switch: different compound, same IC50
Input Oc1cccc2cccnc12 [Compound 2, 8-hydroxyquinoline, reference compound] . Output IC50: 9.33 µM

Data origin, for the record: paper PMC11767929
